measuredTarget: Human Factor D (Homo sapiens (Human), UniProt P00746)
Sequence (P00746 26-253): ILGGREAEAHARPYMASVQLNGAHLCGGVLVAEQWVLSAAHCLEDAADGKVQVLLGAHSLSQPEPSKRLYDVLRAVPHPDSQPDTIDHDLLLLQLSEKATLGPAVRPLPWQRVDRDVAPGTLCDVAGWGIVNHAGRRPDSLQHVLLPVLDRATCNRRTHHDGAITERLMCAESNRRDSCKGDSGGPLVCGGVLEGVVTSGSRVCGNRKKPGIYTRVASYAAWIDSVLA
experiment: Human Factor D Assay
Format: biochemical
conditionDescription: Table 3; Human Factor D 80 nM, substrate Z-L-Lys-SBzl; read-out: IC50 (Stars)

- smi: "CC(=O)c1nn(CC(=O)N2[C@@H](C)CC[C@H]2C(=O)Nc2cccc(Br)n2)c2ccc(-c3cnc(C)nc3)cc12"
  measuredTarget: "Human Factor D (Homo sapiens (Human), UniProt P00746)"
  IC50: "< 1000 nM"
- smi: "CC(=O)c1nn(CC(=O)N2[C@@H]3C[C@@H]3C[C@H]2C(=O)NC/C(F)=C(/C)c2ccccc2Cl)c2ccc(-c3cnc(C)nc3)cc12"
  measuredTarget: "Human Factor D (Homo sapiens (Human), UniProt P00746)"
  IC50: "< 1000 nM"
- smi: "COc1ncc(-c2ccc3c(c2)c(C(C)=O)nn3CC(=O)N2C[C@H](F)C[C@H]2C(=O)Nc2cccc(Br)n2)cn1"
  measuredTarget: "Human Factor D (Homo sapiens (Human), UniProt P00746)"
  IC50: "< 1000 nM"
- smi: "CC(=O)c1nn(CC(=O)N2C[C@H](F)C[C@H]2C(=O)Nc2cccc(Br)n2)c2ccc(-c3cnc(CO)nc3)cc12"
  measuredTarget: "Human Factor D (Homo sapiens (Human), UniProt P00746)"
  IC50: "< 1000 nM"
- smi: "CC(=O)c1nn(CC(=O)N2[C@@H]3C[C@@H]3C[C@H]2C(=O)Nc2cncc(Cl)n2)c2ccc(-c3cnc(C)nc3)cc12"
  measuredTarget: "Human Factor D (Homo sapiens (Human), UniProt P00746)"
  IC50: "< 1000 nM"
- smi: "CC(=O)c1nn(CC(=O)N2C[C@H](F)C[C@H]2C(=O)Nc2ccc(F)cn2)c2ccc(-c3cnc(C)nc3)cc12"
  measuredTarget: "Human Factor D (Homo sapiens (Human), UniProt P00746)"
  IC50: "< 1000 nM"
- smi: "CC(=O)c1nn(CC(=O)N2C3CC[C@@H](C3)[C@H]2C(=O)Nc2cccc(Br)n2)c2ccc(-c3cnc(C)nc3)cc12"
  measuredTarget: "Human Factor D (Homo sapiens (Human), UniProt P00746)"
  IC50: "< 1000 nM"
- smi: "CC(=O)c1nn(CC(=O)N2[C@@H]3C[C@@H]3C[C@H]2C(=O)NCC(F)=C(C)C)c2ccc(-c3cnc(C)nc3)cc12"
  measuredTarget: "Human Factor D (Homo sapiens (Human), UniProt P00746)"
  IC50: "< 1000 nM"
- smi: "CC(=O)c1nn(CC(=O)N2C[C@H](F)C[C@H]2C(=O)Nc2nn(C)c3ncccc23)c2ccc(-c3cnc(C)nc3)cc12"
  measuredTarget: "Human Factor D (Homo sapiens (Human), UniProt P00746)"
  IC50: "< 1000 nM"
- smi: "CC(=O)c1nn(CC(=O)N2C[C@H](F)C[C@H]2C(=O)Nc2ccc(F)c(Br)c2)c2ccc(-c3cnc(C)nc3)cc12"
  measuredTarget: "Human Factor D (Homo sapiens (Human), UniProt P00746)"
  IC50: "< 1000 nM"
- smi: "CC(=O)c1nn(CC(=O)N2C[C@H](F)C[C@H]2C(=O)Nc2cccc(Br)n2)c2ccc(-c3cnc(CNC(=O)OC(C)(C)C)nc3)cc12"
  measuredTarget: "Human Factor D (Homo sapiens (Human), UniProt P00746)"
  IC50: "< 1000 nM"
- smi: "CC(=O)c1cn(CC(=O)N2CC[C@H]2C(=O)Nc2cccc(C)n2)c2ccc(-c3cnc(C)nc3)cc12"
  measuredTarget: "Human Factor D (Homo sapiens (Human), UniProt P00746)"
  IC50: "> 10000 nM"
- smi: "CCc1ccc(Br)nc1NC(=O)[C@@H]1C[C@@H](F)CN1C(=O)Cn1nc(C(C)=O)c2cc(-c3cnc(C)nc3)ccc21"
  measuredTarget: "Human Factor D (Homo sapiens (Human), UniProt P00746)"
  IC50: "< 1000 nM"
- smi: "COc1ncc(-c2ccc3c(c2)c(C(C)=O)nn3CC(=O)N2[C@@H]3C[C@@H]3C[C@H]2C(=O)Nc2nc(Br)ccc2C)cn1"
  measuredTarget: "Human Factor D (Homo sapiens (Human), UniProt P00746)"
  IC50: "< 1000 nM"
- smi: "CC(=O)c1nn(CC(=O)N2[C@@H]3C[C@@H]3C[C@H]2C(=O)Nc2ccn(CC(F)(F)F)n2)c2ccc(-c3cnc(C)nc3)cc12"
  measuredTarget: "Human Factor D (Homo sapiens (Human), UniProt P00746)"
  IC50: "< 1000 nM"
- smi: "COc1ncc(-c2ccc3c(c2)c(C(C)=O)nn3CC(=O)N2[C@@H]3C[C@@H]3C[C@H]2C(=O)Nc2cncc(Br)n2)cn1"
  measuredTarget: "Human Factor D (Homo sapiens (Human), UniProt P00746)"
  IC50: "< 1000 nM"
- smi: "CC(=O)c1nn(CC(=O)N2C[C@H](F)C[C@H]2C(=O)Nc2cccc(Br)n2)c2cc(CN(C)C)c(-c3cnc(C)nc3)cc12"
  measuredTarget: "Human Factor D (Homo sapiens (Human), UniProt P00746)"
  IC50: "< 1000 nM"
- smi: "CCOC(=O)Cc1ncc(-c2ccc3c(c2)c(C(C)=O)nn3CC(=O)N2C[C@H](F)C[C@H]2C(=O)Nc2ccc(F)c(Br)n2)cn1"
  measuredTarget: "Human Factor D (Homo sapiens (Human), UniProt P00746)"
  IC50: "< 1000 nM"
- smi: "CC(=O)c1nn(CC(=O)N2C[C@H](F)C[C@H]2C(=O)Nc2cncc(Br)n2)c2ccc(-c3cnc(N)nc3)cc12"
  measuredTarget: "Human Factor D (Homo sapiens (Human), UniProt P00746)"
  IC50: "< 1000 nM"
- smi: "CC(=O)c1nn(CC(=O)N2[C@@H]3C[C@@H]3C[C@H]2C(=O)NC/C(F)=C(\\C)c2cccc(Cl)c2)c2ccc(-c3cnc(C)nc3)cc12"
  measuredTarget: "Human Factor D (Homo sapiens (Human), UniProt P00746)"
  IC50: "< 1000 nM"
- smi: "CC(=O)c1nn(CC(=O)N2C[C@H](F)C[C@H]2C(=O)Nc2nc(CC(F)(F)F)cs2)c2ccc(-c3cnc(C)nc3)cc12"
  measuredTarget: "Human Factor D (Homo sapiens (Human), UniProt P00746)"
  IC50: "< 1000 nM"
- smi: "CC(=O)c1nn(CC(=O)N2C[C@H](F)C[C@H]2C(=O)NCC(F)=C(C)C)c2ccc(-c3cnc(C)nc3)cc12"
  measuredTarget: "Human Factor D (Homo sapiens (Human), UniProt P00746)"
  IC50: "< 1000 nM"
- smi: "CC(=O)c1nn(CC(=O)N2C[C@H](F)C[C@H]2C(=O)Nc2ccnc(OCC(F)(F)F)n2)c2ccc(-c3cnc(C)nc3)cc12"
  measuredTarget: "Human Factor D (Homo sapiens (Human), UniProt P00746)"
  IC50: "< 1000 nM"
- smi: "CC(=O)c1nn(CC(=O)N2C[C@H](F)C[C@H]2C(=O)NC/C(F)=C(/C)c2cccc(Cl)c2)c2ccc(-c3cnc(C)nc3)cc12"
  measuredTarget: "Human Factor D (Homo sapiens (Human), UniProt P00746)"
  IC50: "< 1000 nM"
- smi: "CC(=O)c1cn(CC(=O)N2C[C@H](F)C[C@H]2C(=O)Nc2cccc(-c3ccccc3Cl)c2F)c2ccc(-c3cnc(O[C@@H]4CO[C@H]5[C@@H]4OC[C@H]5O)nc3)cc12"
  measuredTarget: "Human Factor D (Homo sapiens (Human), UniProt P00746)"
  IC50: "< 1000 nM"
